Data origin, for the record: ChEMBL document CHEMBL1137994

Decrease values, listed per item
- Experimental system: 3-hydroxy-3-methylglutaryl-coenzyme A reductase (Rattus norvegicus)
- Test: Percent decrease in HMG-CoA reductase activity in rat
Form entry: value (%) — number only.

Exercise: Entry C(=C\c1ccccc1)/CSSC/C=C/c1ccccc1 , system 3-hydroxy-3-methylglutaryl-coenzyme A reductase (Rattus norvegicus): what Decrease was measured?
Solution: 5.9

Exercise: Entry O=[N+]([O-])c1ccc(/C=C/CSSC/C=C/c2ccc([N+](=O)[O-])cc2)cc1 , system 3-hydroxy-3-methylglutaryl-coenzyme A reductase (Rattus norvegicus): what Decrease was measured?
Solution: 55.7

Exercise: Entry CC[C@H](C)C(=O)O[C@H]1C[C@@H](C)C=C2C=C[C@H](C)[C@H](CC[C@@H]3C[C@@H](O)CC(=O)O3)[C@H]21 [LOVASTATIN] , system 3-hydroxy-3-methylglutaryl-coenzyme A reductase (Rattus norvegicus): what Decrease was measured?
Solution: 35.4

Exercise: Entry COc1ccc(/C=C/CSSC/C=C/c2ccc(OC)cc2)cc1 , system 3-hydroxy-3-methylglutaryl-coenzyme A reductase (Rattus norvegicus): what Decrease was measured?
Solution: 3.69

Exercise: Entry O=C(O)c1ccc(/C=C/CSSC/C=C/c2ccc(C(=O)O)cc2)cc1 , system 3-hydroxy-3-methylglutaryl-coenzyme A reductase (Rattus norvegicus): what Decrease was measured?
Solution: 24.2

Exercise: Entry C=CCS[S+]([O-])CC=C (configuration not stated) [ALLICIN] , system 3-hydroxy-3-methylglutaryl-coenzyme A reductase (Rattus norvegicus): what Decrease was measured?
Solution: 27.6

Exercise: Entry Nc1ccc(/C=C/CSSC/C=C/c2ccc(N)cc2)cc1 , system 3-hydroxy-3-methylglutaryl-coenzyme A reductase (Rattus norvegicus): what Decrease was measured?
Solution: 7.5
